# measured-on: Smc1/Smc3 heterodimer with Scc1-C (cohesin) (Saccharomyces cerevisiae, UniProt P32908+P47037)
# Construct: N-terminal tags; Sf9 insect cells; fluorescently labelled for MST; with Sister chromatid cohesion protein 1
# Sequence (P32908 whole entry): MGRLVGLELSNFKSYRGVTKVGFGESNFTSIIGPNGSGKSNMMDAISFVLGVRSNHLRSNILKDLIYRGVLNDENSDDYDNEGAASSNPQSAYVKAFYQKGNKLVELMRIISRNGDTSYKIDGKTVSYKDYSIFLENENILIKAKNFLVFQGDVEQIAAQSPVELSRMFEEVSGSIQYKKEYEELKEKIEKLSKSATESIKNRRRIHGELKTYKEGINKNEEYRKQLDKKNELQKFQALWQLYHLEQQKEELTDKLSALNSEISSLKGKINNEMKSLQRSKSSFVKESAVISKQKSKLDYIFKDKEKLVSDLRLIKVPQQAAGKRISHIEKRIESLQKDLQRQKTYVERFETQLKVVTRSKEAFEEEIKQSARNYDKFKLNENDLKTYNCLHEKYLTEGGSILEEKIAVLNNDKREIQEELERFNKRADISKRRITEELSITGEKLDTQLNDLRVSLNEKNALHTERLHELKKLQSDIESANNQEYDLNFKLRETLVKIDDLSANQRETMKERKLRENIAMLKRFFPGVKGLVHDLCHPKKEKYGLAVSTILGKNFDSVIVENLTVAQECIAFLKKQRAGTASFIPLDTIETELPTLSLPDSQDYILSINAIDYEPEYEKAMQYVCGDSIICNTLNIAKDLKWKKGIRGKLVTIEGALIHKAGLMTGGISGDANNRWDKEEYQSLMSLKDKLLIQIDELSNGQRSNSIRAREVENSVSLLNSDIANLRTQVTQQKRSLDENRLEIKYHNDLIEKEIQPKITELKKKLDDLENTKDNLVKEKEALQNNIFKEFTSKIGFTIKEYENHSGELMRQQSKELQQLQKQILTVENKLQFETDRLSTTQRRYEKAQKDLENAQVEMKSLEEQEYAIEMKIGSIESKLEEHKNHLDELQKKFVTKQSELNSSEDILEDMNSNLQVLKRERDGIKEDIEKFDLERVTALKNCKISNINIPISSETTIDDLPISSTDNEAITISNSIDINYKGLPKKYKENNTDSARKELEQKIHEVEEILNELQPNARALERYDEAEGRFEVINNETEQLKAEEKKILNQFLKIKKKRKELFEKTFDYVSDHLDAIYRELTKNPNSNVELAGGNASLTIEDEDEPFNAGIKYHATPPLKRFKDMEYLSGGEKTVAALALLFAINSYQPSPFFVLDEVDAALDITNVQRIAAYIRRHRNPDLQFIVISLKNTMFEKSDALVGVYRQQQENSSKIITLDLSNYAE
# Sequence (P47037 whole entry): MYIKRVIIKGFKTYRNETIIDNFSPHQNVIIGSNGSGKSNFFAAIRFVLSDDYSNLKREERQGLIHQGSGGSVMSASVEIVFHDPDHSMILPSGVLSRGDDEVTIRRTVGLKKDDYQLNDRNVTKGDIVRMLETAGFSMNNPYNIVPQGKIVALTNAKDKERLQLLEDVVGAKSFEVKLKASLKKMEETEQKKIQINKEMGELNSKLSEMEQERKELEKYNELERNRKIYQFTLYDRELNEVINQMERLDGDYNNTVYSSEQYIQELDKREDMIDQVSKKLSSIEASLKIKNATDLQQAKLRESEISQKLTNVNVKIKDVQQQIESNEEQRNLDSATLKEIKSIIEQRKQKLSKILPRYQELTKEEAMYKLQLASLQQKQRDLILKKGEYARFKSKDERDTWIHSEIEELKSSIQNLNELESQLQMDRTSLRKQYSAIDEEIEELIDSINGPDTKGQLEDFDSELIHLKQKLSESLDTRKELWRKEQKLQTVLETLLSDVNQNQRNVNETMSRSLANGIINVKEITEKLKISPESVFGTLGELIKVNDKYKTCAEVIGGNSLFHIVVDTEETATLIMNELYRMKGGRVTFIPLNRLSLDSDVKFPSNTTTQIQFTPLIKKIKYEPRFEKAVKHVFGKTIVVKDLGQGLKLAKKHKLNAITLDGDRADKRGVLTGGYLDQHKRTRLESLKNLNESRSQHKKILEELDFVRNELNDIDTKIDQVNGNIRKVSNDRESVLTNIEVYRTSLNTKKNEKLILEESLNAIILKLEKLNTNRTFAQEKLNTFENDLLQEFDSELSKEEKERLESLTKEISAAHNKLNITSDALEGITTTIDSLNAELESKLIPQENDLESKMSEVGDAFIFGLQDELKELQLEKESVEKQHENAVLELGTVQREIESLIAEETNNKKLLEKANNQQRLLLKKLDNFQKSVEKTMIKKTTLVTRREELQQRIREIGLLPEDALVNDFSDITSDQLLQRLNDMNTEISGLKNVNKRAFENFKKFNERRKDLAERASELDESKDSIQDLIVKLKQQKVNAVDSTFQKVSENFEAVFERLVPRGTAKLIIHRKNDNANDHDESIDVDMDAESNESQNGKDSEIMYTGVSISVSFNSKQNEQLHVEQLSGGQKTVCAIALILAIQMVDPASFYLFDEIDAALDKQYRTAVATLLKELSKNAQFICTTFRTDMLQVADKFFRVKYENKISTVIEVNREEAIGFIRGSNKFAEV
# Sequence (Q12158 whole entry partner): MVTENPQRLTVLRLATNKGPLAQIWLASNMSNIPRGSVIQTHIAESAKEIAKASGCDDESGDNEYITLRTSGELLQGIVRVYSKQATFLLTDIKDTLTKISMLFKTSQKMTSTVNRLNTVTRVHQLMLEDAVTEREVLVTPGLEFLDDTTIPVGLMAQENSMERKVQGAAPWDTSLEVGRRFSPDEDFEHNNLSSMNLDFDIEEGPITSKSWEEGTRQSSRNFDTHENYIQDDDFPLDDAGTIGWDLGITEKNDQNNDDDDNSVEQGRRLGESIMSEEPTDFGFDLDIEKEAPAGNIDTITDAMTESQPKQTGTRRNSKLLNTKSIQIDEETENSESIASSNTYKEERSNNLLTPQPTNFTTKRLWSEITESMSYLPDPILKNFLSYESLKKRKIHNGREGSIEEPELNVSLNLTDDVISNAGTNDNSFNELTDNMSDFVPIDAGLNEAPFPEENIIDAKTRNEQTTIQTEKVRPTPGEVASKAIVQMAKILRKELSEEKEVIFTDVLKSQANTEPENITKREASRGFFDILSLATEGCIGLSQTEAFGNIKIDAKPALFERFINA
# assay-summary: microscale thermophoresis
# cond: fluorescently labelled protein; Smc1 co-purified with Scc1-C, plus Smc3; read-out: affinity
metric: Kd

[in] # Kd lookup, item Nc1ncnc2c1ncn2[C@@H]1O[C@H](COP(=O)(O)OP(=O)(O)O)[C@@H](O)[C@H]1O [ADP]
[out] > 1000 µM

---

# measured-on: Smc1/Smc3 heterodimer with Scc1-C (cohesin) (Saccharomyces cerevisiae, UniProt P32908+P47037, P32908:L1129V, form not given)
# Construct: N-terminal tags; Sf9 insect cells; fluorescently labelled for MST; with Sister chromatid cohesion protein 1
# Sequence (P32908 whole entry L1129V, form open, one chain of several): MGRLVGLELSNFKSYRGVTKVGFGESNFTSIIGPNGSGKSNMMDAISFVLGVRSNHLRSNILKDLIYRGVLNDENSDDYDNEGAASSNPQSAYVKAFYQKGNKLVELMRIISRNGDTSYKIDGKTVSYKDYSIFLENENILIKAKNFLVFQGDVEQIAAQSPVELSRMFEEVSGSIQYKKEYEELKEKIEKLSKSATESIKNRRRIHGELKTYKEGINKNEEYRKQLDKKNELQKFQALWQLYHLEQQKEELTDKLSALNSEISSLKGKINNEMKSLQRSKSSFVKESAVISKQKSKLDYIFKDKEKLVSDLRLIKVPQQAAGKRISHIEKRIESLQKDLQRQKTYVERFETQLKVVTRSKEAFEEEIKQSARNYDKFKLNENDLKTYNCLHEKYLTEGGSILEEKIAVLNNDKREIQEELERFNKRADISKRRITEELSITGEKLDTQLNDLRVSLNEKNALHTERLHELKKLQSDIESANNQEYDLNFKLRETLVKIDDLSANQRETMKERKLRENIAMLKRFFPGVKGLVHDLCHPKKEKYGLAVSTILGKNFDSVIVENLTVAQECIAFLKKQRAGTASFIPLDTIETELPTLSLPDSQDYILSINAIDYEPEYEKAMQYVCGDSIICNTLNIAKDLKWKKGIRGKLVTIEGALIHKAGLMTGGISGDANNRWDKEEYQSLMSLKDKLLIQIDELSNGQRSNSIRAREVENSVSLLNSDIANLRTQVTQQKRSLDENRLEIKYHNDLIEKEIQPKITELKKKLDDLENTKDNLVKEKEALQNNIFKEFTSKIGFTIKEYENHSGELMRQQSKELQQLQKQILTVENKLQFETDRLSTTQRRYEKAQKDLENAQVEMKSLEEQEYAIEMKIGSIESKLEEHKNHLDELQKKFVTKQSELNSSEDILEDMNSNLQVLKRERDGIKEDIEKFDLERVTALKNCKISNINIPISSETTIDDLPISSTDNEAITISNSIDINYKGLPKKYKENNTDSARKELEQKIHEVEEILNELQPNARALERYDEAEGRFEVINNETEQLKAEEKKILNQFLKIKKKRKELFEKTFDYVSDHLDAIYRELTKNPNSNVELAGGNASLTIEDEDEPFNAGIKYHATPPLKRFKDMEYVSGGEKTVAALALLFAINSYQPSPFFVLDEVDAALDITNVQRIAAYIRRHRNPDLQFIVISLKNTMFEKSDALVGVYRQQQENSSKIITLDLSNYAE
# assay-summary: microscale thermophoresis
# Type: binding
# cond: fluorescently labelled protein; Smc1 co-purified with Scc1-C, plus Smc3; read-out: affinity
metric: Kd (µM)
The figure you give is taken to be in µM; do not add the unit.

[in] Item under review: Nc1ncnc2c1ncn2[C@@H]1O[C@H](COP(=O)(O)OP(=O)(O)OP(=O)(O)O)[C@@H](O)[C@H]1O [ATP] . Reported Kd?
[out] 667

Source: paper PMC4769319
